Assay: Confirmation screen for delayed death inhibitors of the malarial parasite plastid, 96 hour incubation; also: nearly all actives have a fitted effect of over 60% in size
Conditions: P. falciparum luciferase growth in erythrocytes; series mostly up to 28.7 µM
The whole screen tested about 2,300 compounds, of which about 1,400 (61%) were called active. Not shown: some 29% with an inconclusive outcome. Calls follow the shape of the dose curve; as a rule, active = well fitted inhibition curve with a large enough effect; inconclusive = small, poorly fitted or top-dose-only effect, or effect the other way; inactive = no such curve, though single readings can be large or run the other way. So high a share suggests a set chosen from earlier hits. Some of the results follow.
Classes to choose from: active, inactive

Previously resolved entries follow.
[[record]]
compound = "CCOC(=O)c1cc(-c2ccccc2)sc1NC(=O)C(C)OC(=O)c1cccnc1Cl (configuration not stated)"
group = "active"

[[record]]
compound = "Cc1nnc(N2CCCC(C(=O)NCc3cccc(F)c3)C2)c2nn(-c3ccccc3)c(C)c12 (configuration not stated)"
group = "active"


**Q:** Hi, sorry to bother you, what did the test record for Cc1ccc(S(=O)(=O)Nc2ccc(C(=O)Nc3ccncc3)cc2)cc1 ?
**A:** active

**Q:** Hi, sorry to bother you, what did the test record for COc1cccc(CN(C)CC2CCCN(CCc3ccc(Cl)cc3)C2)c1OC (configuration not stated) ?
**A:** active

**Q:** Hi, sorry to bother you, what did the test record for O=C(NC1CCCC1)C(c1ccncc1)N(Cc1ccco1)C(=O)c1ccc(-c2ccccc2)[nH]1 (configuration not stated) ?
**A:** active

**Q:** Hi, sorry to bother you, what did the test record for O=C(C=C=Nc1ccccc1)C(=O)N=C=Cc1ccccc1 ?
**A:** active

**Q:** Hi, sorry to bother you, what did the test record for O=C(NC1CCCCC1)C(c1ccncc1)N(Cc1ccccc1)C(=O)c1ccc(-c2ccccc2)[nH]1 (configuration not stated) ?
**A:** active

**Q:** Hi, sorry to bother you, what did the test record for CCc1nc(Nc2ccncc2)c2oc3ccccc3c2n1 ?
**A:** active

**Q:** Hi, sorry to bother you, what did the test record for O=[N+]([O-])c1ccc(Sc2cccc3cccnc23)c([N+](=O)[O-])c1 ?
**A:** active

**Q:** Hi, sorry to bother you, what did the test record for COc1ccc(Cl)cc1/C=C/c1ccc2cccc(O)c2n1 ?
**A:** active

**Q:** Hi, sorry to bother you, what did the test record for CN(Cc1ccccc1Cl)C(=O)C1CCC(=O)N(CCc2cccc(F)c2)C1 (configuration not stated) ?
**A:** active

**Q:** Hi, sorry to bother you, what did the test record for COc1ccc(-c2c(C(C)=O)c(C)n(C)c2C)cc1 ?
**A:** active

**Q:** Hi, sorry to bother you, what did the test record for CN(CCNC(=O)C1CCC(=O)N(Cc2cccc(F)c2)C1)CCc1ccccc1 (configuration not stated) ?
**A:** active

* * *

Assay: Confirmation screen for delayed death inhibitors of the malarial parasite plastid, 96 hour incubation; also: nearly all actives have a fitted effect of over 60% in size
Details: P. falciparum luciferase growth in erythrocytes; series mostly up to 28.7 µM
Hit rate of the full screen: of about 2,300 compounds, about 1,400 (61%) were called active. Another 29% or so got no clear call; they are omitted. Calls come from the whole dose curve; as a rule, active = well fitted inhibition curve with a large enough effect; inconclusive = small, poorly fitted or top-dose-only effect, or effect the other way; inactive = no such curve, though single readings can be large or run the other way. The set was probably picked from earlier hits. The list shows a part of the results.
Classes to choose from: active, inactive

Previously resolved entries follow.
[[record]]
chemical_structure = "CCc1nc(SCC(=O)Nc2ccccc2OC)c2c(C)c(C)sc2n1"
group = "active"

[[record]]
chemical_structure = "COc1cnc(-c2ccccn2)nc1Oc1ccc(C(C)(C)C)cc1"
group = "active"

[[record]]
chemical_structure = "O=C(O)c1nn(CCSc2ccccc2F)c(=O)c2ccccc12"
group = "inactive"

[[record]]
chemical_structure = "Cc1cc(F)ccc1S(=O)(=O)Nc1ccccc1C(=O)Nc1ccccc1-c1nc2ccccc2[nH]1"
group = "active"


Then there is this compound:
**Q:** Hi, sorry to bother you, what did the test record for CC1CCN(C(=O)Cn2c(=O)oc3cc(S(=O)(=O)N4CCCCC4)ccc32)CC1 ?
**A:** active
